# targetSystem: T1, human IL-23 (human, UniProt P29460 23-328; Q9NPF7 20-189)
# T1 construct: Recombinant (Ebioscience); HIS-tagged in flow cytometry, biotinylated in some assays; also called hIL-23; rhIL-23
# T1 sequence 1: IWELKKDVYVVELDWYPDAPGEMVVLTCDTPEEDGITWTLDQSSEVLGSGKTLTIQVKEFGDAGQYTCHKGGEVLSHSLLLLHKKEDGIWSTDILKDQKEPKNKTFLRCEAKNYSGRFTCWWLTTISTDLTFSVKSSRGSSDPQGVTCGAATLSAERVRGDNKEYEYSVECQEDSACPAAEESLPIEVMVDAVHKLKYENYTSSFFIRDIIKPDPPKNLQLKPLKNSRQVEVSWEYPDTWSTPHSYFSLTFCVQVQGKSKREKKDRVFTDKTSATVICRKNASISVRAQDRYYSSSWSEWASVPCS
# T1 sequence 2: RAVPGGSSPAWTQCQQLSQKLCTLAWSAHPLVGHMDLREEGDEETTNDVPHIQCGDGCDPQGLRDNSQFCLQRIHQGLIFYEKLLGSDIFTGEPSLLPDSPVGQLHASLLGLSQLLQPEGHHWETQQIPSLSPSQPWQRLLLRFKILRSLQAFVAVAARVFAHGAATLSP
# assayMethodText: ELISA, coated IL-23
recordedEndpoint: binding result

{"columns": ["binder", "recordedEndpoint", "measuredResult"],
 "data": [
  ["Antibody 19 (antibody, human IgG1, kappa, V domains shown) VH: EVQLQQSGADLVRSGASIKLSCTASGFNIKDYYMHWVKQRPEQGLEWIGWIDPENGDTEYAPKFQGKATMTADTSSNTAYLQLSSLTSEDTAVYYCNASKELRYFDVWGAGTTVTVSS VL: DIVLTQSPATLSVTPGDSVSLSCRASQSISINLHWYQQKSHESPRLLIKFASQSISGIPSRFSGYGSGTDFTLSINSVETEDFGRYFCQQSNSWPLTFGAGTKLELKR", "binding result", "binds"],
  ["Antibody 5 (antibody, human IgG1, kappa, V domains shown) VH: EVQLQQSGADLVRSGASIKLSCTASGFNIKDYYMHWVKQRPEQGLEWIGWIDPENGDTEYAPKFQGKATMTADTSSNTAYLQLSSLTSEDTAVYYCNAAKELRYFDVWGAGTTVTVSS VL: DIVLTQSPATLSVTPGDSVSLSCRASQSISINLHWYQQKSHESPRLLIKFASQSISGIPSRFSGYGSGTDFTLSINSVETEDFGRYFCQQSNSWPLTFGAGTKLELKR", "binding result", "binds"]
]}
